tested on: MRCKB; construct: gene CDC42BPB;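 note: kd values determined as follow-up on hits from a single-replicate KINOMEscan panel screen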
measurement-type: pKd
# pKd is unitless: minus log10 of the molar concentration; print number only

# pKd (compound: Cc1cccc(-c2nc(C)cc(Nc3ccncc3)n2)n1 [GSK257997] ) is 6.24

# pKd (compound: COc1ccc2nc(-c3cccc(C)n3)nc(Nc3ccncc3)c2c1 [GSK204919] ) is 6.28

---

Provide the recorded %Inh for the entries that follow.
test system: EPHA2; conditions: concentration: 1 μM, replicates: in singlicate; n = 1
The reply should contain only the number, in %.

# %Inh (molecule: `CC(C)(C)c1ccc(C(=O)Nc2cn3cc(Cl)ccc3n2)cc1` ) is 0

# %Inh (molecule: CCn1c(-c2ccccn2)nc2cnccc21 [SB-736398] ) is 6

# %Inh (molecule: `Cn1ccc2ncnc(Oc3ccc(NC(=O)Nc4ccccc4)cc3)c21` ) is 0

# %Inh (molecule: COc1ccc(C2=C(Nc3cccc(C(=O)O)c3)C(=O)NC2=O)cc1 [SB-390765] ) is 9

# %Inh (molecule: Fc1cc(Cl)ccc1Nc1ccnc2cc(I)ccc12 [GW551191] ) is 26

---

Provide the recorded %Inh for the entries that follow.
system: PRKD1; details: concentration: 1 μM, replicates: in singlicate; n = 1

# %Inh (compound: `Cn1ccc2ncnc(Oc3ccc(NC(=O)Nc4ccccc4)cc3)c21` ) is 0%

# %Inh (compound: `Cc1cc(N2Cc3ccccc3C2)nc(Nc2ccc(S(=O)(=O)N3CCOCC3)cc2)n1.Cl` ) is 0%

# %Inh (compound: `COc1ccccc1-c1ccc2c(NC(=O)C3CC3)n[nH]c2n1` ) is 0%

# %Inh (compound: `Cc1cccc(-c2nc(C)cc(Nc3ccncc3)n2)n1` ) is 78%

# %Inh (compound: `Cc1cccc(-c2cc(Nc3ccncc3)c3ccccc3n2)n1` ) is 91.1%

---

test system: PAK4; conditions: concentration: 1 μM, replicates: in singlicate; n = 1
Provide the recorded %Inh for the entries that follow.
The reply should contain only the number, in %.

# %Inh (compound: `Cn1ccc2ncnc(Oc3ccc(NC(=O)Nc4ccccc4)cc3)c21` ) is 10

# %Inh (compound: CN1C(=O)C(Nc2ccc(Cl)c(C(=O)O)c2)=C(c2ccc(Cl)cc2)C1=O [SB-404290] ) is 0

# %Inh (compound: CSc1nn2c(=O)cc(N3CCOCC3)nc2n1Cc1cccc(C(F)(F)F)c1C [GSK2363608] ) is 0

# %Inh (compound: CS(=O)(=O)c1ccc(-c2nc3n(c2-c2ccncc2)CCC3)cc1 [SKF-105942] ) is 0

# %Inh (compound: COc1ccc(Nc2nccc(NCCNC(=O)Nc3ccccc3F)n2)cc1 [GSK1379901] ) is 0

# %Inh (compound: CCn1c(-c2cccnc2O)nc2cnccc21 [SB-736715] ) is 32

# %Inh (compound: `Fc1cccc(COc2nnc(-c3ccc4c(c3)CCO4)o2)c1` ) is 15

# %Inh (compound: COc1ccc(CNC(=O)NC2CCN(c3ccnc(Nc4cc(OC)c(OC)c(OC)c4)n3)C2)cc1 (centres unmarked) [GSK1379748] ) is 0

# %Inh (compound: `Cn1ccc2ncnc(Oc3ccc(Nc4nc5ccccc5[nH]4)cc3)c21` ) is 0

# %Inh (compound: O=C(Nc1n[nH]c2nc(-c3nccs3)c(Br)cc12)C1CCCC1 [SB-742609] ) is 0

# %Inh (compound: O=c1cc(N2CCOCC2)nc2n(Cc3cccc(Cl)c3Cl)ccn12 [GSK2286295] ) is 0

# %Inh (compound: COc1ccc2nc(-c3cccc(C)n3)nc(Nc3ccncc3)c2c1 [GSK204919] ) is 0

# %Inh (compound: CCn1c(-c2ccccn2)nc2cnccc21 [SB-736398] ) is 0

# %Inh (compound: O=C(Nc1ccc2c(c1)OCO2)NC1CCN(c2ccnc(Nc3ccc(F)cc3)n2)C1 (centres unmarked) [GSK1379724] ) is 0

# %Inh (compound: Cc1cccc(-c2cc(Nc3ccncc3)c3ccccc3n2)n1 [GSK223675] ) is 0

# %Inh (compound: `CC(=O)Nc1nc2cnc(Nc3cc(NC(=O)c4cccc(CCC#N)c4)ccc3C)nc2s1` ) is 5

# %Inh (compound: COc1cccc(NC(=O)NC2CCN(c3ccnc(Nc4ccc(F)cc4)n3)C2)c1 (centres unmarked) [GSK1379721] ) is 0

# %Inh (compound: COc1ccccc1CNC(=O)c1cc(C(=O)c2ccccc2C)c[nH]1 [GSK364507] ) is 0

# %Inh (compound: `NC(=O)c1nnc2ccccc2c1N` ) is 0

# %Inh (compound: O=C(Nc1n[nH]c2nc(-c3nccs3)c(Br)cc12)C1CC1 [SB-742251] ) is 0

---

test system: FLT3; conditions: concentration: 1 μM, replicates: in singlicate; n = 1
measurement-type: %Inh (%)
The reply should contain only the number, in %.

# %Inh (compound: `Cc1ccccc1-n1cnc2c(N)ncnc21` ) is 0

# %Inh (compound: O=C(Nc1ccc2c(c1)OCO2)NC1CCN(c2ccnc(Nc3ccc(F)cc3)n2)C1 (centres unmarked) ) is 0

# %Inh (compound: COc1ccc(CNC(=O)NC2CCN(c3ccnc(Nc4cc(OC)c(OC)c(OC)c4)n3)C2)cc1 (centres unmarked) ) is 71

# %Inh (compound: `COc1ccc(C2=C(Nc3cccc(C(=O)O)c3)C(=O)NC2=O)cc1` ) is 23

# %Inh (compound: `O=C(Nc1n[nH]c2nc(-c3nccs3)c(Br)cc12)C1CCCC1` ) is 44

# %Inh (compound: `Cl.O=C(Nc1cccc(-c2nn3ncccc3c2-c2ccnc(Nc3cccnc3)n2)c1)c1c(F)cccc1F` ) is 0

# %Inh (compound: CC1=C(C(=O)Nc2cc3cn[nH]c3cc2F)C(c2ccc(C(F)(F)F)cc2)CC(=O)N1 (centres unmarked) ) is 0

# %Inh (compound: COc1cc(Nc2nccc(N3CCC(NC(=O)Nc4cc(C)ccc4C)C3)n2)cc(OC)c1OC (centres unmarked) ) is 36

---

test system: ERBB2; conditions: concentration: 1 μM, replicates: in singlicate; n = 1
Provide the recorded %Inh for the entries that follow.
The reply should contain only the number, in %.

# `Cn1cncc1-c1ccc2ncnc(Nc3ccc(OCc4ccccc4)cc3)c2c1` with ERBB2: %Inh is 99.4

# `Cc1cccc(-c2nc(C)cc(Nc3ccncc3)n2)n1` with ERBB2: %Inh is 28

# Cc1nnc(-c2ccc3occ(-c4ccc(S(C)=O)cc4)c3c2)[nH]1 (stereo not drawn) with ERBB2: %Inh is 16

# `C[C@@H]1CCCCN1c1cc(-c2ccc3c(N)n[nH]c3c2)nc(N)n1` with ERBB2: %Inh is 18

# `Cc1c(Cn2ccn3c(=O)cc(N4CCOCC4)nc23)cccc1C(F)(F)F` with ERBB2: %Inh is 0

# `O=c1cc(N2CCOCC2)nc2n(Cc3cccc(Cl)c3Cl)ccn12` with ERBB2: %Inh is 0

# `Cc1ccc(NC(=O)Nc2cc(C(C)(C)C)nn2-c2ccccc2)cc1` with ERBB2: %Inh is 36

# `Cc1cccc(-c2nc(Nc3ccncc3)c3ccccc3n2)n1` with ERBB2: %Inh is 7

# COc1ccc(CNC(=O)NC2CCN(c3ccnc(Nc4cc(OC)c(OC)c(OC)c4)n3)C2)cc1 (stereo not drawn) with ERBB2: %Inh is 0

---

Provide the recorded %Inh for the entries that follow.
tested on: AKT1; settings: concentration: 1 μM, replicates: in singlicate; n = 1
The reply should contain only the number, in %.

# %Inh (compound: `COC(=O)c1c(-c2ccccc2)c2cc(OC)ccc2c(=O)n1Cc1ccccc1` ) is 1

# %Inh (compound: CSc1nn2c(=O)cc(N3CCOCC3)nc2n1Cc1cccc(C(F)(F)F)c1C [GSK2363608] ) is 0

# %Inh (compound: `CC(C)(C)c1ccc(C(=O)Nc2cn3cc(-c4cccnc4)ccc3n2)cc1` ) is 0

# %Inh (compound: COc1cccc(NC(=O)NC2CCN(c3ccnc(Nc4ccc(F)cc4)n3)C2)c1 (stereo not shown) [GSK1379721] ) is 0

# %Inh (compound: `Fc1cccc(COc2nnc(-c3ccc4c(c3)CCO4)o2)c1` ) is 0

# %Inh (compound: `Cn1ccc2ncnc(Oc3ccc(NC(=O)Nc4ccccc4)cc3)c21` ) is 13

# %Inh (compound: Nc1nc(-c2nccs2)c(-c2ccnc3ccccc23)s1 [GW693542] ) is 0

---

system: MKNK2; details: concentration: 1 μM, replicates: in singlicate; n = 1
Provide the recorded %Inh for the entries that follow.
The reply should contain only the number, in %.

# %Inh (molecule: Clc1cc(Cl)cc(Nc2ccnc(Nc3cc(Cl)cc(Cl)c3)n2)c1 [GSK175726] ) is 0

# %Inh (molecule: `COC(=O)c1c(-c2ccccc2)c2cc(OC)ccc2c(=O)n1Cc1ccccc1` ) is 0

# %Inh (molecule: COc1cc2nccc(Nc3ccc(NC(=O)c4ccc(C)cc4)c(O)c3)c2cc1OC.Cl [GW440132] ) is 5

# %Inh (molecule: COc1cccc(-c2cc(-c3c[nH]nc3-c3ccccn3)ccn2)c1 [GW680338] ) is 0

# %Inh (molecule: Fc1cc(Cl)ccc1Nc1ccnc2cc(-c3ccc(CN4CCCCC4)o3)ccc12 [GW560116] ) is 11

# %Inh (molecule: CC1=C(C(=O)Nc2cc3cn[nH]c3cc2F)C(c2ccc(C(F)(F)F)cc2)CC(=O)N1 (stereo not shown) [GSK429286] ) is 19

# %Inh (molecule: O=C(Nc1n[nH]c2nc(-c3nccs3)c(Br)cc12)C1CCCC1 [SB-742609] ) is 31

# %Inh (molecule: `Fc1cccc(COc2nnc(-c3ccc4c(c3)CCO4)o2)c1` ) is 0

# %Inh (molecule: O=C(Nc1ccc2c(c1)OCO2)NC1CCN(c2ccnc(Nc3ccc(F)cc3)n2)C1 (stereo not shown) [GSK1379724] ) is 3

# %Inh (molecule: C[C@@H]1CCCCN1c1cc(-c2ccc3c(N)n[nH]c3c2)nc(N)n1 [GSK2258759] ) is 5

# %Inh (molecule: Cc1ccc(-c2cc(-c3c[nH]nc3-c3ccccn3)ccn2)cc1 [GW684088] ) is 1

# %Inh (molecule: Cc1cc(NCC(c2ccccc2)c2ccccc2)nc(NCc2ccc(C(F)(F)F)cc2)n1 [GW497681] ) is 0

# %Inh (molecule: Cl.Oc1ccc(-c2nc(-c3ccccc3)[nH]c2-c2ccncc2)cc1 [SB-428218] ) is 0

# %Inh (molecule: Cl.NC(=O)c1cccc(Nc2nccc(Nc3ccc(Oc4cccc(Cl)c4)c(Cl)c3)n2)c1 [GW659008] ) is 4

# %Inh (molecule: `Cn1ccc2ncnc(Oc3cccc(C(=O)Nc4ccccc4)c3)c21` ) is 11

# %Inh (molecule: Cc1cccc(-c2cc(Nc3ccncc3)c3ccccc3n2)n1 [GSK223675] ) is 4

# %Inh (molecule: CCn1c(-c2ccccn2)nc2cnccc21 [SB-736398] ) is 24

# %Inh (molecule: COc1cccc(NC(=O)NC2CCN(c3ccnc(Nc4ccc(F)cc4)n3)C2)c1 (stereo not shown) [GSK1379721] ) is 0

# %Inh (molecule: Fc1cc(Cl)ccc1Nc1ccnc2cc(I)ccc12 [GW551191] ) is 18
